These data points were gathered from PubChem BioAssay (NCI).

System: NCI-H460 lung
Assay: NCI-60 one-dose screen, 48 h (100 = growth as untreated, 0 = no growth, -100 = all killed)
Conditions: 10 µM unless noted
About 83,000 compounds went through this panel and 20% of them were active in at least one assay; those are over-represented in the sample as a whole. Activity calls are given as the source filed them. How the source made its calls: active means growth percent below 10; inactive means the rest.
attributeMeasured: growth

Some compounds with recorded growth:
- CN(C)CCN(C)c1ccc2ncc(C#Cc3cncc(C(=O)Nc4ccc(CN5CCN(C)CC5)c(C(F)(F)F)c4)c3)n2n1: -76% (active)
- C=C(C=O)[C@@H]1CC[C@]2(C)[C@H](C(=O)C=C3[C@H]4C[C@](C)(C(=O)OC)CC[C@]4(C)CC[C@]32C)[C@@]1(C)CCC#N: 32.4% (inactive)

Shifting focus to the compound that follows.
Report growth for O=C(Nc1cccc(Cl)c1)Nc1nc2ccc([N+](=O)[O-])cc2o1 please.
7.51% (active)
